# targetEntity: TRAP1 enzyme (Homo sapiens, UniProt Q12931)
# Sequence (Q12931 60-704): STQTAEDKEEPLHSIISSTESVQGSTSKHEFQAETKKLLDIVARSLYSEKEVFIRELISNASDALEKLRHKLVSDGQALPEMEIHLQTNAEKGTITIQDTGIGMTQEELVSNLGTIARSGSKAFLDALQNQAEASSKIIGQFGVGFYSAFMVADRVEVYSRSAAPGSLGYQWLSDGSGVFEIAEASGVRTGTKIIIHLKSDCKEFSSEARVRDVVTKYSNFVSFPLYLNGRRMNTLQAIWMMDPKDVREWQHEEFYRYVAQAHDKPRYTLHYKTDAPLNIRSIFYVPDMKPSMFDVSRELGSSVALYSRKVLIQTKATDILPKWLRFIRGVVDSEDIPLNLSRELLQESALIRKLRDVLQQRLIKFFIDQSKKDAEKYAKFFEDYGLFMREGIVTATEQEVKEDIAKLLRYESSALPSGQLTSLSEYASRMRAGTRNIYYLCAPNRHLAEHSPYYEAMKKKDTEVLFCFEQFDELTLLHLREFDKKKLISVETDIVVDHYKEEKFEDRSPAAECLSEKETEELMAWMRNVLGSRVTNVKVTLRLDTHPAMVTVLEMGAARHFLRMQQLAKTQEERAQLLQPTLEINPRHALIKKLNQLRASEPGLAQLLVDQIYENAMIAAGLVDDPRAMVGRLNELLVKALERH
# method: Malachite green phosphate assay of TRAP1 ATPase activity
# Type: biochemical
# cond: read-out: Malachite Green Fluor DRC: Mean Emax
Task for the reader: assign each of the following molecules its reported Emax.

Some molecules with recorded Emax:
COc1ccc(NC(=O)c2ccc(-c3ccccc3)o2)cc1S(=O)(=O)Nc1ccc(Cl)cc1 | 160 to 199%
COc1ccc(NC(=O)c2cnc(C(F)(F)F)[nH]2)cc1S(=O)(=O)Nc1cccc(C(C)(C)C)c1 | 200 to 300%
COc1ccc(NC(=O)c2cnco2)cc1S(=O)(=O)Nc1ccc(Br)cc1 | 160 to 199%

Please examine the following record next.
Asked: What measured Emax is associated with `COc1ccc(NC(=O)c2nc(C(F)(F)F)cs2)cc1S(=O)(=O)Nc1ccc(Br)cc1` on TRAP1 enzyme (Homo sapiens, UniProt Q12931)?
Given back: 200 to 300%
